Below: a set of entries, each annotated with reported EC50.
Assay: Cytotoxicity against human Hep3B cells by MTT assay
Format: functional, Hep 3B2
Conditions: read-out: ED50 (the source's name)
Report the value in µg/mL with no unit label.

Answered cases to consult:
* O=c1[nH]cc(F)c(=O)[nH]1 [FLUOROURACIL] | 0.0715
* COc1cc2c(O)c3c(c(-c4ccc5c(c4)OCO5)c2cc1OC)C(=O)OC3 [DIPHYLLIN] | 3.6
* COc1cc2c(O[C@@H]3OC[C@](O)(CO)[C@H]3O)c3c(c(-c4ccc5c(c4)OCO5)c2cc1OC)C(=O)OC3 [TUBERCULATIN] | 0.014

Recall and state the measured EC50 for COc1cc2c(OC)c3c(c(-c4ccc5c(c4)OCO5)c2cc1OC)C(=O)OC3 [JUSTICIDIN A] .
0.029

Output measured EC50 for this item: `COc1cc2c(O[C@@H]3OC[C@](O)(CO)[C@H]3O[C@H]3OC[C@@H](O)[C@@H](O)[C@@H]3O)c3c(c(-c4ccc5c(c4)OCO5)c2cc1OC)C(=O)OC3`
3.1
